Data origin: patent US20230304010A1

- System: ACE2 : SARS-CoV-2 Spike Delta (B1 617 2/India) variant
- Assay type: binding
- condition-context: read-out: IC50, Delta (B1617)
assay-readout: pIC50
One number for each entry, as −log10 of the molar value.

Request: Please report the recorded pIC50 for Ac-N*GVEGFNK*Ava-LWRALWRLWRSLWRLLWK-NH2 [Seq17] .
Response: 7.32

---

- Test system: SARS-CoV-2 Alpha variant
- condition-context: read-out: Alpha (B117) IC50
assay-readout: pIC50
Answers are plain numbers, as −log10 of the molar value.

Request: Please report the recorded pIC50 for GGCCAAACTGTCACTAAGAAA (chemistry not given here) [DIVC-6] .
Response: 7.07

The record that follows has no pIC50 shown yet.
Request: Please report the recorded pIC50 for Ac-N*GVEGFNK*Ava-LWRALWRLWRSLWRLLWK-NH2 [Seq17] .
Response: 6.90

---

What pIC50 was measured for each of the following?
- Test system: SARS-CoV-2 Delta variant
- condition-context: read-out: Delta (B1617) IC50
Answers are plain numbers, as −log10 of the molar value.

Request: Item: Ac-N*GVEGFNK*Ava-LWRALWRLWRSLWRLLWK-NH2 [Seq17] Test system: SARS-CoV-2 Delta variant Read-out: pIC50 Value: ?
Response: 7.59

The record that follows has no pIC50 shown yet.
Request: Item: GGCCAAACTGTCACTAAGAAA (chemistry not given here) [DIVC-6] Test system: SARS-CoV-2 Delta variant Read-out: pIC50 Value: ?
Response: 7.04
